Collected koff values appear next to each entry.
- target.or.test.system: T1, recombinant human IL6 (human, UniProt P05231 30-212)
- T1 construct: Amine-coupled to a CM5 chip in the Biacore assay; used biotinylated in the Alphascreen assays; also called interleukin-6; biotinylated human IL6
- procedure.summary: SPR, Biacore 3000; IL6 amine-coupled on CM5 chip, periplasmic extract injected
// units = s⁻¹; emit number, no label

INSERT INTO results (binder, obs_value) VALUES
  ('PMP13D8 (VHH, Monovalent Nanobody) VHH: QVKLEESGGGLVQAGSSLRLSCAASGRTSSPYTMGWFRQPPGKVREFVGRINWSGITNYADSVKGRFTISRDNNKNTVYLQMNRLKPEDTAVYYCASASQVGSGYDSWGQGTQVTVSS', 0.000251),
  ('PMP21H1 (VHH, Monovalent Nanobody) VHH: QVQLVESGGGLVQTGGSLRLSCAASGSTFSKHHATGWFRQAPGKEREFVAALNWSGGNTYYTDSVKGRFTISRDNAQNTVYLQMNSLKPEDTAVYYCAAGSYVFYFTVRDQYDYWGQGTQVTVSS', 0.00124),
  ('PMP17G7 (VHH, Monovalent Nanobody) VHH: QVKLEESGGGLVQAGGSLRLSCAASGGTFSSYPMGWFRQAPGKEREFVTGISQSGGSTAYSDSVKGRFTISRENAKNTVYLQMNSLKPEDTAVYYCAARGRTIALRNYAYTTEVGYDDWGQGTQVTVSS', 0.000669);

Okay, now this binder:
Quick one: give measured koff for PMP13H6 (VHH, Monovalent Nanobody) VHH: QVKLEESGGGLVQAGGSLRLSCASSGRTFSSYVMGWFRQTPGKEREFVSTINWSGSNKYYADSVKGRFTISRDNAKNTVYLQMNSLKPEDTAVYYCAASAGGFLVPRVGQGYDYWGQGTQVTVSS
0.00189
